Measured values drawn from the MegaScale stability set (Tsuboyama et al. 2023) for this set.

B1: EHEE_rd4_0726 (parent)
chain: DIEITTNGEEDAKRVIKELQKRNLEYHIEVHGNQWVIKVR

Variants of: B1
Procedure Details: folding stability dG (cDNA display proteolysis); higher = more stable
Condition Details: PBS, room temperature
Please enter true where folding stability dG is greater than or equal to 2 kcal/mol, and false where it is lower.

Worked set:
Confirm if folding stability dG reported for the variant E3Q is 2 kcal/mol or above. true

Another variant: G32N false

Another variant: E25R true

Another variant: Q20E true

Another variant: Y26M false

Continuing:
Confirm if folding stability dG reported for the variant A12F is 2 kcal/mol or above. true

Another variant: E25V true

Another variant: E29D false
